The following compounds each carry a recorded IC50 for hBPGM (Homo sapiens (Human), UniProt P07738).
One number for each entry, in nM.

Cc1nc(CO[C@@H]2CCCOC2)sc1-c1cccc(-c2ccc(C(=O)O)cc2)c1
980
Cc1nc(Cn2cccc(C#N)c2=O)sc1-c1cccc(-c2ccc(C(=O)O)c(O)c2)c1
560
Cc1nc(CN)sc1-c1csc(-c2ccc(C(=O)O)c(O)c2)n1
4400

Query compound follows.
Prompt: Find the recorded IC50 belonging to Cc1nc(C)c(-c2nsc(-c3cc(O)c(C(=O)O)c(F)c3F)n2)s1 and report it.
Response: 1000

====

The following compounds each carry a recorded IC50 for hBPGM (Homo sapiens (Human)).

Example results:
Cc1nc(C)c(-c2csc(-c3ccc(C(=O)O)c(O)c3)n2)s1 [Example 184]
1500 nM
Cc1nc(C)c(NC(=O)Nc2ccc(C(=O)O)c(O)c2)s1
> 25000 nM
Cc1nc(COc2cccnn2)sc1-c1csc(-c2cc(O)c(C(=O)O)cc2F)n1
42 nM
Cc1nc(Cc2ccncc2)sc1-c1cccc(-c2ccc(C(=O)O)c(O)c2)c1
730 nM

Query compound follows.
Prompt: Find the recorded IC50 belonging to Cc1nc(COc2ccc(F)cn2)sc1-c1cnn(-c2ccc(C(=O)O)c(O)c2)c1 and report it.
Response: 2100 nM

====

Biological target: hBPGM (Homo sapiens (Human))
Quick rule for you: IC50 under 1 µM gets criterion met, anything else gets criterion not met.

Observe how each entry below is paired with its result.
Cc1nc(CNC(C)c2cccnc2)sc1-c1csc(-c2cc(O)c(C(=O)O)cc2F)n1 (stereo not drawn)
criterion not met
Cc1nc(CO)sc1-c1cccc(-c2c[nH]c(C(=O)O)c2)n1
criterion not met

Prompt: Lab note: confirm whether the reported IC50 for this molecule is below 1 µM, equality not counting. molecule: Cc1nc(Cc2ccccc2F)sc1-c1cccc(-c2ccc(C(=O)O)c(O)c2)c1
Response: criterion not met

Prompt: Lab note: confirm whether the reported IC50 for this molecule is below 1 µM, equality not counting. molecule: Cc1nc(COC(=O)N2CCCC2)sc1-c1csc(-c2cc(O)c(C(=O)O)cc2F)n1
Response: criterion met

Prompt: Lab note: confirm whether the reported IC50 for this molecule is below 1 µM, equality not counting. molecule: Cc1nc(CO)sc1-c1cccc(-c2cc(C(=O)O)cs2)n1
Response: criterion not met

Prompt: Lab note: confirm whether the reported IC50 for this molecule is below 1 µM, equality not counting. molecule: COC(=O)NCc1nc(C)c(-c2csc(-c3ccc(C(=O)O)c(O)c3)c2)s1
Response: criterion met

Prompt: Lab note: confirm whether the reported IC50 for this molecule is below 1 µM, equality not counting. molecule: COC(=O)NCc1nc(C)c(-c2nsc(-c3ccc(C(=O)O)c(O)c3)n2)s1
Response: criterion met

Prompt: Lab note: confirm whether the reported IC50 for this molecule is below 1 µM, equality not counting. molecule: Cc1nc(CNC2CCOC2)sc1-c1cccc(-c2ccc(C(=O)O)cc2)c1 (stereo not drawn)
Response: criterion not met

Prompt: Lab note: confirm whether the reported IC50 for this molecule is below 1 µM, equality not counting. molecule: Cc1nc(C)c(-c2csc(-c3ccc(O)c(C(=O)O)c3)n2)s1
Response: criterion not met

====

For each entry below, report its EC50 value.
Target: human Bisphosphoglycerate mutase (hBPGM) (Homo sapiens (Human))
Sequence (P07738 whole entry): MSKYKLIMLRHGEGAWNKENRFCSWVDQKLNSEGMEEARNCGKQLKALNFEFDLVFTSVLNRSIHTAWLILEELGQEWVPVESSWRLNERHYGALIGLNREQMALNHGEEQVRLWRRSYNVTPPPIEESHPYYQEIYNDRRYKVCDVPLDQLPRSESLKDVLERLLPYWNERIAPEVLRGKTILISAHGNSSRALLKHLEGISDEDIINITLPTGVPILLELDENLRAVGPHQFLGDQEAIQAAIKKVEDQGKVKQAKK
Assay: BPGM Phosphatase Assay
Details: Table 6 additional results; read-out: huBPGM: phosphatase Enzyme EC50
Give bare numbers, in nM.

Cc1nc(Cc2cccnc2)sc1-c1cccc(-c2cc(O)c(C(=O)O)cc2F)c1
280
Cc1nc(COc2ncccn2)sc1-c1cccc(-c2ccc(C(=O)O)cc2)n1
2100
Cc1nc(C)c(-c2csc(-c3cc(O)c(C(=O)O)cn3)n2)s1
2900

Each molecule below has a reported value. Please supply its EC50.
1. Cc1nc(Cc2ccn(C)n2)sc1-c1csc(-c2cc(O)c(C(=O)O)cc2F)n1
2. COC(=O)NCc1nc(C)c(-c2csc(-c3cc(O)c(C(=O)O)cn3)n2)s1
3. COC(=O)NCc1nc(C)c(-c2csc(-c3cc(O)c(C(=O)O)cc3F)c2)s1
4. Cc1nc(COC(=O)N(C)CCN(C)C)sc1-c1csc(-c2cc(O)c(C(=O)O)cc2F)n1

Response:
1: 130; 2: 340; 3: 79; 4: 170

====

Biological target: human Bisphosphoglycerate mutase (hBPGM) (Homo sapiens (Human))
Test: BPGM Phosphatase Assay
Conditions: Table 6 additional results; read-out: huBPGM: phosphatase Enzyme EC50
Observation type: pEC50
Give bare numbers, as −log10 of the molar value.

Example results:
Cc1nc(CNC(=O)OC(C)C)sc1-c1csc(-c2cc(O)c(C(=O)O)cc2F)n1
7.10
Cc1nc(CNC(=O)OCCN(C)C)sc1-c1csc(-c2cc(O)c(C(=O)O)cc2F)n1
6.77
Cc1nc(Cc2cccnc2)sc1-c1csc(-c2cc(O)c(C(=O)O)cc2F)c1
7.10
Cc1nc(CNC(=O)c2cc[nH]n2)sc1-c1csc(-c2cc(O)c(C(=O)O)cc2F)n1
7.40
Cc1nc(CNC(=O)c2ccccn2)sc1-c1csc(-c2cc(O)c(C(=O)O)cc2F)n1
6.57

Each compound below has a reported value. Please supply its pEC50.
1. Cc1nc(COc2cccnn2)sc1-c1csc(-c2cc(O)c(C(=O)O)cc2F)n1
2. COC(=O)NCc1nc(C)c(-c2csc(-c3cc(O)c(C(=O)NCC(=O)O)cc3F)n2)s1
3. Cc1nc(CNC(=O)c2cccnc2)sc1-c1csc(-c2cc(O)c(C(=O)O)cc2F)n1
4. Cc1nc(Cc2cccnc2)sc1-c1cccc(-c2ccc(C(=O)O)c(O)c2)n1

Response:
7.40
6.24
6.49
6.77

Each compound below has a reported value. Please supply its pEC50.
1. Cc1cccnc1OCc1nc(C)c(-c2cccc(-c3ccc(C(=O)O)c(O)c3)c2)s1
2. COC(=O)NCc1nc(C)c(-c2cccc(-c3cc(O)c(C(=O)O)cc3F)n2)s1
3. COC(=O)NCc1nc(C)c(-c2csc(-c3cc(O)c(C(=O)O)c(F)c3F)n2)s1
4. Cc1nc(Cn2cccn2)sc1-c1cccc(-c2ccc(C(=O)O)c(O)c2)c1
5. Cc1nc(COCC(N)=O)sc1-c1csc(-c2cc(O)c(C(=O)O)cc2F)n1
6. Cc1nc(COc2ccn(C)n2)sc1-c1csc(-c2cc(O)c(C(=O)O)cc2F)n1
7. Cc1nc(COC2CCCOC2)sc1-c1cccc(-c2cc(C(=O)O)cs2)n1 (centres unmarked)

Response:
1: 6.70; 2: 6.85; 3: 7.15; 4: 5.51; 5: 5.82; 6: 7.19; 7: 6.28

====

Biological target: hBPGM (Homo sapiens (Human), UniProt P07738)
pIC50: −log10 of the molar value.
We use 6 as the dividing line for pIC50: on or above the line is TRUE, below is FALSE.

Observe how each entry below is paired with its result.
Cc1nc(CNC(=O)CN(C)C)sc1-c1csc(-c2cc(O)c(C(=O)O)cc2F)n1 [Example 120]
TRUE
Cc1nc(CNCC(=O)N(C)C)sc1-c1csc(-c2cc(O)c(C(=O)O)cc2F)n1 [Example 169]
TRUE
Cc1nc(COc2ccccn2)sc1-c1cccc(-c2cc(O)c(C(=O)O)cc2F)n1 [Example 164]
TRUE
Cc1ccc(C#N)c(OCCn2cc(-c3cccc(-c4ccc(C(=O)O)c(O)c4)c3)cn2)n1 [Example 110]
FALSE
Cc1nc(COc2ccc(F)cn2)sc1-c1cccc(-c2ccc(C(=O)O)c(C(F)F)c2)n1 [Example 22]
TRUE
Cc1nc(COc2ccc(F)cn2)sc1-c1cccc(-c2ccc(C(=O)O)c(C(F)F)c2)c1 [Example 29]
FALSE
Cc1nc(Cc2ccn(C)n2)sc1-c1csc(-c2ccc(C(=O)O)c(O)c2)n1 [Example 189]
TRUE
Cc1nc(CNC2CCCOC2)sc1-c1cccc(-c2ccc(C(=O)O)cc2)c1 (centres unmarked) [Example 52]
FALSE
COC(=O)NCc1nc(C)c(-c2csc(-c3cc(O)c(C(=O)O)c(F)c3F)n2)s1 [Example 135]
TRUE
Cc1nc(C)c(-c2cccc(-c3ccc(C(=O)O)cc3)c2C)s1 [Example 306]
FALSE

Prompt: Say whether Cc1nc(C)c(-c2ccnc(-c3ccc(C(=O)O)c(O)c3)c2)s1 [Example 310] shows pIC50 of 6 or more.
Response: FALSE

Prompt: Say whether CNC(=O)CCc1nc(C)c(-c2cccc(-c3ccc(C(=O)O)c(O)c3)c2)s1 [Example 264] shows pIC50 of 6 or more.
Response: FALSE

====

Target: human Bisphosphoglycerate mutase (hBPGM) (Homo sapiens (Human))
Assay: BPGM Phosphatase Assay
Conditions: Table 6 additional results; read-out: huBPGM: phosphatase Enzyme EC50
Procedure: Solutions of the test compounds were then added to the plate and the DMSO content was normalized across the plate. The plate was incubated at RT for 15 min. Next, the substrate 2,3-BPG (5 μL) was added to all the wells, and the plate was sealed and incubated for 24 hr at RT. After incubation, BIOMOL green dye (40 μL) was added to all the wells, the plate was shaken to mix, and the plate was incubated at RT for 20-30 min.
For each entry below, report its pEC50 value.
Numbers only, as −log10 of the molar value.

Example results:
Cc1nc(Cn2c(C)cccc2=O)sc1-c1cccc(-c2ccc(C(=O)O)c(O)c2)c1 [Example 267]
6.46
Cc1nc(COc2ccc(C#N)cn2)sc1-c1cccc(-c2ccc(C(=O)O)c(O)c2)c1 [Example 93]
6.57
Cc1nc(C)c(-c2csc(-c3ccc(C(=O)O)c(O)c3)c2)s1 [Example 274]
6.41
Cc1nc(C(C)NC(=O)c2cccnn2)sc1-c1csc(-c2cc(O)c(C(=O)O)cc2F)n1 (centres unmarked) [Example 151]
7.15
Cc1nc(COc2cccc(C#N)n2)sc1-c1cccc(-c2ccc(C(=O)O)c(O)c2)c1 [Example 256]
7.15

Each molecule below has a reported value. Please supply its pEC50.
1. Cc1nc(CNC(=O)C2CCC2)sc1-c1csc(-c2cc(O)c(C(=O)O)cc2F)n1 [Example 220]
2. Cc1nc(Cn2cccn2)sc1-c1csc(-c2cc(O)c(C(=O)O)cc2F)n1 [Example 248]

Response:
[7.20, 6.96]
